As shown below, each of these compounds has a reported relative viability value.
System: PC-14
assay: relative viability (nuclei count vs DMSO), 5 days (fraction); higher = more cells survive
test-conditions: first compound 0.006325 µM
Please reply with the number alone, leaving off any unit.

Known results for compounds:
INSERT INTO assay_data (compound, recorded_number) VALUES
  ('CC(=O)O[C@@]12CO[C@@H]1C[C@H](O)[C@@]1(C)C(=O)[C@H](O)C3=C(C)[C@@H](OC(=O)[C@H](O)[C@@H](NC(=O)OC(C)(C)C)c4ccccc4)C[C@@](O)([C@@H](OC(=O)c4ccccc4)[C@H]21)C3(C)C [Docetaxel] + Cc1nc(NC(=O)N2CCC[C@H]2C(N)=O)sc1-c1ccnc(C(C)(C)C(F)(F)F)c1 [Alpelisib] (partner 2 µM)', 0.11),
  ('CC(=O)O[C@@]12CO[C@@H]1C[C@H](O)[C@@]1(C)C(=O)[C@H](O)C3=C(C)[C@@H](OC(=O)[C@H](O)[C@@H](NC(=O)OC(C)(C)C)c4ccccc4)C[C@@](O)([C@@H](OC(=O)c4ccccc4)[C@H]21)C3(C)C [Docetaxel] + C[C@]1(O)C[C@@H](c2nc(-c3ccc4ccc(-c5ccccc5)nc4c3)c3c(N)nccn32)C1 [Linsitinib] (partner 1 µM)', 0.152),
  ('CC(=O)O[C@@]12CO[C@@H]1C[C@H](O)[C@@]1(C)C(=O)[C@H](O)C3=C(C)[C@@H](OC(=O)[C@H](O)[C@@H](NC(=O)OC(C)(C)C)c4ccccc4)C[C@@](O)([C@@H](OC(=O)c4ccccc4)[C@H]21)C3(C)C [Docetaxel] + CC(=O)c1c(C)c2cnc(Nc3ccc(N4CCNCC4)cn3)nc2n(C2CCCC2)c1=O [Palbociclib] (partner 0.5 µM)', 0.0351);

Prompt line: What does the data say about its relative viability? Entry: CC(=O)O[C@@]12CO[C@@H]1C[C@H](O)[C@@]1(C)C(=O)[C@H](O)C3=C(C)[C@@H](OC(=O)[C@H](O)[C@@H](NC(=O)OC(C)(C)C)c4ccccc4)C[C@@](O)([C@@H](OC(=O)c4ccccc4)[C@H]21)C3(C)C [Docetaxel] + NC(=O)Nc1cc(-c2cccc(F)c2)sc1C(=O)N[C@H]1CCCNC1 [AZD7762] (partner 0.2 µM)
Response line: 0.0705
